experiment.notes: Plasma clearance adapted in PK-Sim simulation to experimental literature concentration-time profiles
Type: in vivo, humans
test.parameters: human, intravenous infusion of 5.58 mg/kg over 20 minutes, adapted to experimental data (FIG. 2a), read-out: plasma clearance CL
Experimental: Drug Dispos. 20, 417-419 (1999)) and a muscle concentration-time profile from the literature (M. Müller, B. v. Osten, R. Schmid, E. Piegler, I. Gerngross, H. Buchegger, H. G. Eichler: “Theophylline kinetics in peripheral tissues in vivo in humans”, Naunyn-Schmiedeberg's Arch. Pharmacol. 352, 438-441 (1995)) (FIG. 2). The plasma clearance here is CL=0.40 ml/min/kg. (source: [12]) • b) Intravenous infusion of 240 mg over 10 minutes. […]
measurement.label: clearance (mL/min/kg)
Please reply with the bare figure in mL/min/kg and do not write the unit itself.

INPUT: Data request, read-out clearance, for Cn1c(=O)c2[nH]cnc2n(C)c1=O [Theophylline]
OUTPUT: 0.4

* * *

experiment.notes: Plasma clearance adapted in PK-Sim simulation to experimental literature concentration-time profiles
Format: in vivo, humans
test.parameters: human, oral, peroral administration of 200 mg immediately releasing formulation, adapted to experimental data (FIG. 2c), read-out: plasma clearance CL
measurement.label: clearance (mL/min/kg)
Please reply with the bare figure in mL/min/kg and do not write the unit itself.

INPUT: Data request, read-out clearance, for Cn1c(=O)c2[nH]cnc2n(C)c1=O [Theophylline]
OUTPUT: 0.5

* * *

experiment.notes: Solubility, substance input parameter
Assay type: physicochemical
test.parameters: input parameter for PK-Sim
measurement.label: solubility

INPUT: Data request, read-out solubility, for Cn1c(=O)c2[nH]cnc2n(C)c1=O [Theophylline]
OUTPUT: 2800 µg/mL
